self-cleavage kobs at 2500 uM GlcN6P values for the variants below.
B1: glmS ribozyme (parent)
chain: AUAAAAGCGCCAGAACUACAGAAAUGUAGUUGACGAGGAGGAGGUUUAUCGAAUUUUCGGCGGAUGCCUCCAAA

Variants of: B1
Assay: self-cleavage kobs at 2500 uM GlcN6P; higher = faster cleavage; RNA array
Conditions: with glucosamine-6-phosphate
Variants at the floor of the assay were thinned out.
valueKind: self-cleavage kobs at 2500 uM GlcN6P (s⁻¹)

INSERT INTO results (changes, rel, reportedmeasurement) VALUES
  ('U69A C70U', '=', '7.15e-05'),
  ('G13C C16U', '=', '8.19e-05'),
  ('A12C G35A A36C U56G G60C', '<', '1e-05'),
  ('A53C U57C', '=', '4.1e-05'),
  ('U47A U56C', '=', 0.00144),
  ('C8A G13C U65C', '<', '1e-05'),
  ('C11G G35A G40A', '<', '1e-05'),
  ('U30G C50U A64G G66U', '<', '1e-05'),
  ('C16G A42G A64U G66A C68A', '<', '1e-05'),
  ('A52C A53C U55C C67G', '<', '1e-05'),
  ('U54G U69A', '=', '9.9e-05'),
  ('G43U C68U', '=', 0.00344),
  ('A48G C71U', '=', 0.000101),
  ('A12C U30A C50U G51C', '<', '1e-05'),
  ('U55G G63U', '<', '1e-05'),
  ('C11G A12C G38U C50U', '<', '1e-05'),
  ('U46C C67U', '=', 0.000469),
  ('A12C U56G A64C', '=', '6.67e-05'),
  ('G41C U45A U56G C67G C70G', '=', 0.00118),
  ('G7C U56G', '<', '1e-05'),
  ('C34U G41A C50U C68U', '<', '1e-05'),
  ('U30C C34G G44C U57G C70U', '<', '1e-05'),
  ('G32C A48G G51U', '<', '1e-05'),
  ('A14U U47A C71G', '=', 0.000172),
  ('C10U C16G C61U C71U', '<', '1e-05'),
  ('G37A U49G', '=', '4.94e-05'),
  ('A6U C34A G44A', '<', '1e-05'),
  ('G7A A14G G29U C70G', '<', '1e-05'),
  ('C11U C16U C71U', '=', 0.000443),
  ('G51U A52G C58U G59A', '<', '1e-05'),
  ('G9A G13C U57C', '<', '1e-05'),
  ('C8A G38A G63U C68U', '<', '1e-05'),
  ('U46G C70A', '=', 0.000395),
  ('A6U C8A U56A', '<', '1e-05'),
  ('G13U C34G U45C U47A', '<', '1e-05'),
  ('A53U A64G', '=', 0.0138),
  ('C8G G59C A64G', '<', '1e-05'),
  ('A14C C50A U54C', '<', '1e-05'),
  ('C8A G13U A53G U65G', '<', '1e-05'),
  ('G7A G40U U45G C58G', '<', '1e-05'),
  ('G43U G59U G63U C68A', '<', '1e-05'),
  ('U46A U47C', '=', 0.00121),
  ('A14U U54G', '=', 0.00387),
  ('C16U G29U U31A', '=', 0.0037),
  ('G35U A42U A64U', '<', '1e-05'),
  ('C58U C68A', '=', '5.08e-05');
